Target System: human C3a receptor (C3aR) (Homo sapiens, UniProt Q16581)
Construct: expressed in transfected cells
Sequence (Q16581 whole entry): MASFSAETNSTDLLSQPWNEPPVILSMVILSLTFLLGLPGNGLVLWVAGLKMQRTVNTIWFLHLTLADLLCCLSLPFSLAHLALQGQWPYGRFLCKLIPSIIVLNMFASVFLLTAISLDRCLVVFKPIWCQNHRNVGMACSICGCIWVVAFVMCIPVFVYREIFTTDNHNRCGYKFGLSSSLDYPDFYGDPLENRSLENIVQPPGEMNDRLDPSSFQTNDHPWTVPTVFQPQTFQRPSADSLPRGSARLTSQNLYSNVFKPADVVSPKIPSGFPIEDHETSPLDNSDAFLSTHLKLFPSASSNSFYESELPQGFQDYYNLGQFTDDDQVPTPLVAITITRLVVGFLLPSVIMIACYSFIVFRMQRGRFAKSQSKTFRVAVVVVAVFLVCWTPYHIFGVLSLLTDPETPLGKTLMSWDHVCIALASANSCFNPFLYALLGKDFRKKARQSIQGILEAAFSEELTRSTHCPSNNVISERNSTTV
Protocol Details: Inhibition of human [125I]-C3a binding to human C3a receptor (SPA, membranes of HEK293 cells expressing recombinant C3aR)
Condition: 0.1 nM [125I]-C3a, 3 hours at room temperature; Table 4
Item-by-item account of IC50

Worked cases, IC50 given:
# Compound, IC50
measured = [
    ("N=C(N)NCCC[C@H](NC(=O)c1cccn(C(c2ccccc2)c2ccccc2)c1=O)C(N)=O [Compound 81]", "500 to 20000 nM"),
    ("NCCCC[C@H](NC(=O)c1cccn(Cc2ccccc2)c1=O)C(=O)O [Compound 60]", "500 to 20000 nM"),
    ("CCOC(=O)N=C(N)NCCC[C@H](NC(=O)c1cccn(C(c2ccccc2)c2ccccc2)c1=O)C(=O)O [Compound 83]", "500 to 20000 nM"),
    ("Cc1ccc(S(=O)(=O)NC(=N)NCCC[C@H](NC(=O)c2cccn(C(c3ccccc3)c3ccccc3)c2=O)C(=O)O)cc1 [Compound 77]", "50 to 500 nM"),
]

Input CCOC(=O)N=C(NCCC[C@H](NC(=O)c1cccn(C(c2ccccc2)c2ccccc2)c1=O)C(=O)O)NC(C)C [Compound 82] , output reported IC50.
50 to 500 nM

Item N=C(NCCC[C@H](NC(=O)c1cccn(Cc2ccccc2)c1=O)C(=O)O)N[N+](=O)[O-] [Compound 73] : provide IC50
500 to 20000 nM

Identify the reported IC50 for the following entry. Cc1ccc(S(=O)(=O)NCCC[C@H](NC(=O)c2cccn(Cc3ccccc3)c2=O)C(=O)O)cc1 [Compound 67]
500 to 20000 nM
